Sourced from paper PMC7921410

Molecular target: T1, MED27 (mouse (Mus musculus; endogenous in CH12), UniProt Q9DB40 1-311)
T1 construct: MED27, Mus musculus, endogenous upper Tail subunit of Mediator; source: endogenous, CH12 mouse B lymphoma nuclear extract; immunopurified as part of Mediator (FLAG M2 agarose, FLAG peptide elution)
T1 sequence (looked up): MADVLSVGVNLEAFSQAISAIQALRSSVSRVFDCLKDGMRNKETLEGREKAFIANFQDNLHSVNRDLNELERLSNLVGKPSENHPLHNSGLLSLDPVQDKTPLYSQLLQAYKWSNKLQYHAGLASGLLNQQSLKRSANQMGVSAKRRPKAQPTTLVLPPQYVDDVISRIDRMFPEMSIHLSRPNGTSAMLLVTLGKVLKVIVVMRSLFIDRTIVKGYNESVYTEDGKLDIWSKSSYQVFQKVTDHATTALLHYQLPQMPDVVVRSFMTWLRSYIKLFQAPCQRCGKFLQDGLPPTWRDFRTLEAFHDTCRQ
Assay: cryo-EM structure; endogenous mouse Mediator immunopurified from CH12 nuclear extract through 3×FLAG-MED19 or 3×FLAG-MED25; eluted in 50 mM HEPES pH 7.9, 100 mM KCl, 5% glycerol, 1 mM EDTA, 0.005% NP-40; map at 4.0 Å overall, focused refinement of the MED1 and knob/hook ends (6-10 Å)
Conditions: both partners purified

{"columns": ["binder", "binding result"],
 "data": [
  ["MED18 (natural protein, mouse (Mus musculus; endogenous in CH12), UniProt Q9CZ82 1-208, looked up, MED18, Mus musculus, endogenous Head module subunit of Mediator; source: endogenous, CH12 mouse B lymphoma nuclear extract; immunopurified as part of Mediator (FLAG M2 agarose, FLAG peptide elution)) MEAPPVTMMPVTGGTINMMEYLLQGSVLDHSLESLIHRLRGLCDNMEPETFLDHEMVFLLKGQQASPFVLRARRSMDRAGAPWHLRYLGQPEMGDKNRHALVRNCVDIATSENLTDFLMEMGFRMDHEFVAKGHLFRKGIMKVVVYKIFRILVPGNTDSTEALSLSYLVELSVVAPAGQDMVSDDMRNFAEQLKPLVHLEKIDPKRLM", "binds"]
]}
